tested on: MCF-7 cells; assay: MTT cytotoxicity assay, MCF-7 cells; type: cell-based; conditions: Homo sapiens, MCF7, 72 h culture, 1-100 µM, triplicate
PROPERTY_MEASURED: pIC50
pIC50 field: float, defined as -log10 of concentration (mol/L).

Some solved entries appear below for comparison.
| MOLECULE | OBSERVED |
| --- | --- |
| Cc1ccc(C2=NN(C(N)=S)C(c3cnc(-c4ccc(Cl)cc4)nc3)C2)cc1 (centres unmarked) | 5.19 |
| Cc1ccc(C(=O)/C=C/c2cnc(-c3ccc(Cl)cc3)nc2)cc1 | 5.21 |
| COc1ccc(C2=NN(c3nc(-c4ccc(F)cc4)cs3)C(c3cnc(-c4ccc(Cl)cc4)nc3)C2)cc1 (centres unmarked) | 4.12 |

Reported pIC50 for COc1ccc(C(=O)/C=C/c2cnc(-c3ccc(Cl)cc3)nc2)cc1 was 5.05

Reported pIC50 for Cc1ccc(C2=NN(c3nc(-c4ccccc4)cs3)C(c3cnc(-c4ccc(Cl)cc4)nc3)C2)cc1 (centres unmarked) was 4.04
